- Test system: Escherichia coli
- Method: Antimicrobial activity against Escherichia coli KAM32 expressing deltaacrB ydhE hsd gene by agar dilution method
- Assay type: functional
Quantity Name: MIC (µg/mL)
One number for each entry, in µg/mL.

Would you please look over these solved cases?
CC[C@H]1OC(=O)[C@H](C)[C@@H](O[C@H]2C[C@@](C)(OC)[C@@H](O)[C@H](C)O2)[C@H](C)[C@@H](O[C@@H]2O[C@H](C)C[C@H](N(C)C)[C@H]2O)[C@](C)(O)C[C@@H](C)C(=O)[C@H](C)[C@@H](O)[C@]1(C)O	2
NC[C@H]1O[C@H](O[C@H]2[C@H](O)[C@@H](O[C@H]3O[C@H](CO)[C@@H](O)[C@H](N)[C@H]3O)[C@H](N)C[C@@H]2N)[C@H](O)[C@@H](O)[C@@H]1O	1
COc1c(N2C[C@@H]3CCCN[C@@H]3C2)c(F)cc2c(=O)c(C(=O)O)cn(C3CC3)c12	0.002

Look up MIC for the entries below, preserving their order.
1. CC/N=c1\cc2oc3cc(NCC)c(C)cc3c(-c3ccccc3C(=O)OCC)c-2cc1C.Cl [RHODAMINE 6G HYDROCHLORIDE]
2. CCn1cc(C(=O)O)c(=O)c2ccc(C)nc21
3. C[C@@H]1CN(c2c(F)c(N)c3c(=O)c(C(=O)O)cn(C4CC4)c3c2F)C[C@H](C)N1

// result
[4, 1, 0.001]

Look up MIC for the entries below, preserving their order.
1. CN(C)c1ccc(C(=C2C=CC(=[N+](C)C)C=C2)c2ccc(N(C)C)cc2)cc1.[Cl-]
2. CC[n+]1c(-c2ccccc2)c2cc(N)ccc2c2ccc(N)cc21.[Br-] [HOMIDIUM BROMIDE]
3. C[n+]1c2cc(N)ccc2cc2ccc(N)cc21.[Cl-]
4. CCCCCCCCCCCCOS(=O)(=O)[O-].[Na+] [SODIUM LAURYL SULFATE]
5. CCN1CCN(c2cc3c(cc2F)c(=O)c(C(=O)O)cn3C2CC2)CC1

// result
2
4
2
128
0.008

Look up MIC for the entries below, preserving their order.
1. CN(C)[C@@H]1C(O)=C(C(N)=O)C(=O)[C@@]2(O)C(O)=C3C(=O)c4c(O)cccc4[C@@](C)(O)[C@H]3C[C@@H]12
2. NC1CCN(c2nc3c(cc2F)c(=O)c(C(=O)O)cn3-c2ccc(F)cc2F)C1 (stereo not given)
3. COc1c(N2CCNC(C)C2)c(F)cc2c(=O)c(C(=O)O)cn(C3CC3)c12 (stereo not given)

// result
[0.25, 0.002, 0.004]

// query Any idea what MIC was measured for CCn1cc(C(=O)O)c(=O)c2cc(F)c(N3CCNC(C)C3)c(F)c21 (stereo not given) ?
// result 0.032

* * *

- Test system: Escherichia coli
- Method: Antimicrobial activity against Escherichia coli KAM32 pSTVdeltaqepA containing disrupted qepA gene by agar dilution method
- Assay type: functional
Quantity Name: MIC

C[n+]1c2cc(N)ccc2cc2ccc(N)cc21.[Cl-] [EUFLAVINE]	2 mg/L
CN(C)[C@@H]1C(O)=C(C(N)=O)C(=O)[C@@]2(O)C(O)=C3C(=O)c4c(O)cccc4[C@@](C)(O)[C@H]3C[C@@H]12 [TETRACYCLINE]	0.125 mg/L
C[C@H]1COc2c(C3(N)CC3)c(F)cc3c(=O)c(C(=O)O)cn1c23 [PAZUFLOXACIN]	0.004 mg/L
NC[C@H]1O[C@H](O[C@H]2[C@H](O)[C@@H](O[C@H]3O[C@H](CO)[C@@H](O)[C@H](N)[C@H]3O)[C@H](N)C[C@@H]2N)[C@H](O)[C@@H](O)[C@@H]1O [KANAMYCIN]	128 mg/L
CC[C@H]1OC(=O)[C@H](C)[C@@H](O[C@H]2C[C@@](C)(OC)[C@@H](O)[C@H](C)O2)[C@H](C)[C@@H](O[C@@H]2O[C@H](C)C[C@H](N(C)C)[C@H]2O)[C@](C)(O)C[C@@H](C)C(=O)[C@H](C)[C@@H](O)[C@]1(C)O [ERYTHROMYCIN]	1 mg/L
CCn1cc(C(=O)O)c(=O)c2cc(F)c(N3CCNCC3)cc21 [NORFLOXACIN]	0.016 mg/L

Look up MIC for the entries below, preserving their order.
1. N#CC(C#N)=NNc1cccc(Cl)c1 [CARBONYL CYANIDE M-CHLOROPHENYLHYDRAZONE]
2. C[C@H]1COc2c(N3CCN(C)CC3)c(F)cc3c(=O)c(C(=O)O)cn1c23.C[C@H]1COc2c(N3CCN(C)CC3)c(F)cc3c(=O)c(C(=O)O)cn1c23.O [LEVOFLOXACIN]
3. COc1c(N2C[C@@H]3CCCN[C@@H]3C2)c(F)cc2c(=O)c(C(=O)O)cn(C3CC3)c12 [MOXIFLOXACIN]
4. CCn1cc(C(=O)O)c(=O)c2cc(F)c(N3CCNC(C)C3)c(F)c21 (stereo not given) [LOMEFLOXACIN]
5. CCn1cc(C(=O)O)c(=O)c2ccc(C)nc21 [NALIDIXIC ACID]
6. C[C@@H]1CN(c2c(F)c(N)c3c(=O)c(C(=O)O)cn(C4CC4)c3c2F)C[C@H](C)N1 [SPARFLOXACIN]

// result
["16 mg/L", "0.004 mg/L", "0.002 mg/L", "0.032 mg/L", "1 mg/L", "0.001 mg/L"]

* * *

- System: Escherichia coli
- Method: Antimicrobial activity against Escherichia coli KAM32 expressing deltaacrB ydhE hsd gene by agar dilution method
- Type: functional
Quantity Name: MIC (mg/L)
Give bare numbers, in mg/L.

C[C@H](CCC(=O)O)[C@H]1CC[C@H]2[C@@H]3CC[C@@H]4C[C@H](O)CC[C@]4(C)[C@H]3C[C@H](O)[C@]12C	1020
CCn1cc(C(=O)O)c(=O)c2cc(F)c(N3CCNCC3)cc21	0.016
C[C@H]1COc2c(C3(N)CC3)c(F)cc3c(=O)c(C(=O)O)cn1c23	0.004

// query Any idea what MIC was measured for N#CC(C#N)=NNc1cccc(Cl)c1 [CARBONYL CYANIDE M-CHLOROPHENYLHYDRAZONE] ?
// result 16

* * *

Assignment: determine reported log10(MIC) for the given compounds.
- Tested on: Escherichia coli
- Method: Antimicrobial activity against Escherichia coli KAM32 pSTVdeltaqepA containing disrupted qepA gene by agar dilution method
- Type: functional
Use the decimal logarithm of MIC (µg/mL).

CC[n+]1c(-c2ccccc2)c2cc(N)ccc2c2ccc(N)cc21.[Br-] [HOMIDIUM BROMIDE]	0.60
CC/N=c1\cc2oc3cc(NCC)c(C)cc3c(-c3ccccc3C(=O)OCC)c-2cc1C.Cl [RHODAMINE 6G HYDROCHLORIDE]	0.60
COc1c(N2CCNC(C)C2)c(F)cc2c(=O)c(C(=O)O)cn(C3CC3)c12 (stereo not drawn) [GATIFLOXACIN]	-2.40

Look up log10(MIC) for the entries below, preserving their order.
1. NC1CCN(c2nc3c(cc2F)c(=O)c(C(=O)O)cn3-c2ccc(F)cc2F)C1 (stereo not drawn) [TOSUFLOXACIN]
2. CN(C)c1ccc(C(=C2C=CC(=[N+](C)C)C=C2)c2ccc(N(C)C)cc2)cc1.[Cl-] [GENTIAN VIOLET]
3. C[C@H](CCC(=O)O)[C@H]1CC[C@H]2[C@@H]3CC[C@@H]4C[C@H](O)CC[C@]4(C)[C@H]3C[C@H](O)[C@]12C [DEOXYCHOLIC ACID]
4. CCN1CCN(c2cc3c(cc2F)c(=O)c(C(=O)O)cn3C2CC2)CC1 [ENROFLOXACIN]

// result
[-2.70, 0.30, 2.71, -2.10]
